Each entry below carries its reported Content in fish flesh.
Assay summary: Carotenoid content in fish flesh of Atlantic salmon by HPLC
Type: in vivo, Salmo salar
Details: Fermented product division, Atlantic salmon, 12 months, flesh frozen 1 month, average of 20 fish
Form entry: value (mg/kg) — number only.

>>> numeric_readout("CC1=C(/C=C/C(C)=C/C=C/C(C)=C/C=C/C=C(C)/C=C/C=C(C)/C=C/C2=C(C)C(=O)CCC2(C)C)C(C)(C)CCC1=O")
0.4
>>> numeric_readout("CC1=C(/C=C/C(C)=C/C=C/C(C)=C/C=C/C=C(C)/C=C/C=C(C)/C=C/C2=C(C)C(=O)[C@@H](O)CC2(C)C)C(C)(C)CCC1=O")
1.7

Here is the next item to consider.
INPUT: Look at this compound and give its reported Content in fish flesh. CC1=C(/C=C/C(C)=C/C=C/C(C)=C/C=C/C=C(C)/C=C/C=C(C)/C=C/C2=C(C)C(=O)[C@@H](O)CC2(C)C)C(C)(C)C[C@H](O)C1
OUTPUT: 0.2
